Data origin, for the record: patent US6156493A

target: Streptomyces avidinii core streptavidin variant W108F (Streptomyces avidinii, UniProt P22629, W132F); construct: core streptavidin, defined as residues 13-139 of the naturally occurring protein; made in house; assay: ELISA concentration-dependent binding to iminobiotin/BSA; settings: Absolute EC50, ligand iminobiotin/BSA; pH 8
Sequence (P22629 37-163 W132F): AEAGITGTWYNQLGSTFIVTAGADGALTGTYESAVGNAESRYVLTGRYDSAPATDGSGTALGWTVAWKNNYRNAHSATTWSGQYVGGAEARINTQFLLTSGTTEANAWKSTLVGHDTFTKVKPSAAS
Readout Kind: EC50 (µM)
Your answer should be a plain number; it is taken to be in µM.

IN: Fill in the blank: the reported EC50 of N=C1N[C@H]2[C@H](CS[C@H]2CCCCC(=O)O)N1 is ____.
OUT: 39.5

###

Molecular target: Streptomyces avidinii core streptavidin variant W108F (Streptomyces avidinii, UniProt P22629, W132F)
Construct: core streptavidin, defined as residues 13-139 of the naturally occurring protein; made in house
Assay: ELISA concentration-dependent binding to iminobiotin/BSA
Details: Absolute EC50, ligand iminobiotin/BSA; pH 10
Description: ELISA Assays. […] where a, b, c, and d are the adjustable fitting parameters; x=streptavidin concentration (μg/ml); y=absorbance at 405 nm. […]
Readout Kind: pEC50
pEC50 field: float, defined as -log10 of concentration (mol/L).

IN: Fill in the blank: the reported pEC50 of N=C1N[C@H]2[C@H](CS[C@H]2CCCCC(=O)O)N1 is ____.
OUT: 6.31
